Consider the following molecules; for each one, report its Minimum Surface Tension.
experimentalDetails: Critical micelle concentration and surface tension of water, Du Nouy method (Kibron Delta-8 microtensiometer)
Assay type: physicochemical
testParameters: surface tension of water at CMC (water 72 mN/m)
Just the number plus its unit, please.

| molecule | reported |
| --- | --- |
| CCCCCCCC(CC(=O)NC(CO)C(=O)NC(CO)CC(C)C)OC(=O)CC(CCCCCCC)OC(=O)CC(CCCCCCC)OC1OC(C)C(O)C(O)C1O (stereo not shown) [NB-RLP860] | 36.2 mN/m |
| CCCCCCCC(CC(=O)NC(CO)C(=O)NC(CO)CC(C)C)OC(=O)CC(CCCCCCC)OC(=O)CC(CCCCCCC)OC1OC(C)C(O)C(OC2OC(C)C(O)C(O)C2O)C1O (stereo not shown) [NB-RLP1006] | 35.5 mN/m |

State recorded Minimum Surface Tension for all listed molecules.
1. CCCCCCCC(CC(=O)NC(CO)C(=O)NC(CO)CC(C)C)OC(=O)CC(CCCCCCC)OC(=O)CC(CCCCCCC)OC1OC(C)C(O)C(OC2OC(C)C(O)C(OC(C)=O)C2O)C1O (stereo not shown) [NB-RLP1048B]
2. CCCC(CC(=O)NC(CO)C(=O)NC(CO)CC(C)C)OC(=O)CC(CCC)OC(=O)CC(CCC)OC1OC(C)C(O)C(OC2OC(C)C(O)C(O)C2O)C1O (stereo not shown) [NB-RLP978]

1. 36.9 mN/m
2. 35.5 mN/m

* * *

experimentalDetails: Critical micelle concentration and surface tension of water, Du Nouy method (Kibron Delta-8 microtensiometer)
Assay type: physicochemical
testParameters: degassed deionized water, 24-25° C., duplicate
parameter: CMC (mM)
Answers are plain numbers, in mM.

// below: answered compounds
| compound | parameter | endpointUnit | reported |
| --- | --- | --- | --- |
| CCCC(CC(=O)NC(CO)C(=O)NC(CO)CC(C)C)OC(=O)CC(CCC)OC(=O)CC(CCC)OC1OC(C)C(O)C(OC2OC(C)C(O)C(O)C2O)C1O (stereo not shown) | CMC | mM | 0.20 |
| CCCCCCCC(CC(=O)NC(CO)C(=O)NC(CO)CC(C)C)OC(=O)CC(CCCCCCC)OC(=O)CC(CCCCCCC)OC1OC(C)C(O)C(OC2OC(C)C(O)C(OC(C)=O)C2O)C1O (stereo not shown) [NB-RLP1048B] | CMC | mM | 0.85 |
| CCCCCCCC(CC(=O)NC(CO)C(=O)NC(CO)CC(C)C)OC(=O)CC(CCCCCCC)OC(=O)CC(CCCCCCC)OC1OC(C)C(O)C(O)C1O (stereo not shown) | CMC | mM | 0.85 |

Find the measured CMC of CCCCCCCC(CC(=O)NC(CO)C(=O)NC(CO)CC(C)C)OC(=O)CC(CCCCCCC)OC(=O)CC(CCCCCCC)OC1OC(C)C(O)C(OC2OC(C)C(O)C(O)C2O)C1O (stereo not shown) and report it.
0.20

* * *

experimentalDetails: Critical micelle concentration and surface tension of water, Du Nouy method (Kibron Delta-8 microtensiometer)
Assay type: physicochemical
testParameters: degassed deionized water, 24-25° C.
parameter: CMC (wt %)
Numbers only, in wt %.

Examples from the recorded data:
| molecule | reported |
| --- | --- |
| CCCCCCCC(CC(=O)NC(CO)C(=O)NC(CO)CC(C)C)OC(=O)CC(CCCCCCC)OC(=O)CC(CCCCCCC)OC1OC(C)C(O)C(OC2OC(C)C(O)C(OC(C)=O)C2O)C1O (stereo not shown) [NB-RLP1048B] | 0.09 |
| CCCCCCCC(CC(=O)NC(CO)C(=O)NC(CO)CC(C)C)OC(=O)CC(CCCCCCC)OC(=O)CC(CCCCCCC)OC1OC(C)C(O)C(OC2OC(C)C(O)C(O)C2O)C1O (stereo not shown) | 0.02 |

Please look at the items below and tell me CMC for each one, in order.
1. CCCCCCCC(CC(=O)NC(CO)C(=O)NC(CO)CC(C)C)OC(=O)CC(CCCCCCC)OC(=O)CC(CCCCCCC)OC1OC(C)C(O)C(O)C1O (stereo not shown)
2. CCCC(CC(=O)NC(CO)C(=O)NC(CO)CC(C)C)OC(=O)CC(CCC)OC(=O)CC(CCC)OC1OC(C)C(O)C(OC2OC(C)C(O)C(O)C2O)C1O (stereo not shown)

0.07
0.02
